Values compiled from patent US20050215544A1.

# Test system: HIV-1 LAI
# assayDetails: Two-drug combination antiviral assay with Compound 1 (combination indices, Chou and Rideout)
# Assay type: cell-based
# experimentalConditions: combination with Compound 1; EC50 ratio 1:1 (Compound 1 to comparator); 95% CI in parenthesis
What Combination Indices at 50% HIV Inhibition (Confidence Interval) was measured for each of the following?

Example cases with answers are listed next.
Input `CC(C)CN(C[C@@H](O)[C@H](Cc1ccccc1)NC(=O)O[C@H]1CCOC1)S(=O)(=O)c1ccc(N)cc1` , output reported Combination Indices at 50% HIV Inhibition (Confidence Interval).
0.47 (0.33, 0.62)

Input `CC(C)(C)NC(=O)[C@@H]1CN(Cc2cccnc2)CCN1C[C@@H](O)C[C@@H](Cc1ccccc1)C(=O)N[C@H]1c2ccccc2C[C@H]1O` , output reported Combination Indices at 50% HIV Inhibition (Confidence Interval).
0.73 (0.58, 0.88)

Input `CON(Cc1ccc(F)cc1)C(=O)C=C(O)C(=O)O` , output reported Combination Indices at 50% HIV Inhibition (Confidence Interval).
0.42 (0.32, 0.52)

Provide Combination Indices at 50% HIV Inhibition (Confidence Interval) for all items below, preserving their order.
1. COC(=O)N[C@H](C(=O)N[C@@H](Cc1ccccc1)[C@@H](O)CN(Cc1ccc(-c2ccccn2)cc1)NC(=O)[C@@H](NC(=O)OC)C(C)(C)C)C(C)(C)C
2. Cc1cn([C@H]2C[C@H](N=[N+]=[N-])[C@@H](CO)O2)c(=O)[nH]c1=O
3. CC(C)c1nc(CN(C)C(=O)N[C@H](C(=O)N[C@@H](Cc2ccccc2)C[C@H](O)[C@H](Cc2ccccc2)NC(=O)OCc2cncs2)C(C)C)cs1
4. CC(C)Nc1cccnc1N1CCN(C(=O)c2cc3cc(NS(C)(=O)=O)ccc3[nH]2)CC1
5. c1cc(CN2CCCNCCNCCCNCC2)ccc1CN1CCCNCCNCCCNCC1
6. Nc1ccn([C@H]2CC[C@@H](CO)O2)c(=O)n1
7. Cc1ccnc2c1NC(=O)c1cccnc1N2C1CC1

["0.76 (0.64, 0.89)", "0.30 (0.17, 0.42)", "0.25 (0.19, 0.31)", "0.79 (0.55, 1.03)", "0.51 (0.34, 0.69)", "0.19 (0.15, 0.23)", "0.13 (0.11, 0.16)"]

Provide Combination Indices at 50% HIV Inhibition (Confidence Interval) for all items below, preserving their order.
1. Nc1nc(NC2CC2)c2ncn([C@H]3C=C[C@@H](CO)C3)c2n1
2. O=c1[nH]cnc2c1ncn2[C@H]1CC[C@@H](CO)O1

0.18 (0.13, 0.23)
0.91 (0.74, 1.09)

====

# System: HIV-1 LAI
# assayDetails: Two-drug combination antiviral assay with Compound 1 (combination indices, Chou and Rideout)
# Format: cell-based
# experimentalConditions: combination with Compound 1; EC50 ratio 1:2.5 (Compound 1 to comparator); 95% CI in parenthesis
endpointName: Combination Indices at 90% HIV Inhibition (Confidence Interval)

Example cases with answers are listed next.
Look up HIV-1 LAI data: Combination Indices at 90% HIV Inhibition (Confidence Interval) of `CC(C)(C)NC(=O)[C@@H]1C[C@@H]2CCCC[C@@H]2CN1C[C@@H](O)[C@H](Cc1ccccc1)NC(=O)[C@H](CC(N)=O)NC(=O)c1ccc2ccccc2n1` , then report it.
0.43 (0.33, 0.52)

Look up HIV-1 LAI data: Combination Indices at 90% HIV Inhibition (Confidence Interval) of `Cc1ccnc2c1NC(=O)c1cccnc1N2C1CC1` , then report it.
1.69 (0.63, 2.75)

Look up HIV-1 LAI data: Combination Indices at 90% HIV Inhibition (Confidence Interval) of `CC(C)(C)NC(=O)[C@@H]1CN(Cc2cccnc2)CCN1C[C@@H](O)C[C@@H](Cc1ccccc1)C(=O)N[C@H]1c2ccccc2C[C@H]1O` , then report it.
0.78 (0.00, 1.64)

Now for another entry.
Look up HIV-1 LAI data: Combination Indices at 90% HIV Inhibition (Confidence Interval) of `CC(C)CN(C[C@@H](O)[C@H](Cc1ccccc1)NC(=O)O[C@H]1CCOC1)S(=O)(=O)c1ccc(N)cc1` , then report it.
0.99 (0.38, 1.60)
